Test system: Methionine sulfoxide reductase A (Bos taurus)
measurement.notes: bovine MsrA enzyme inhibitors, primary screen, biochemical, absorbance, HTS (AID 651718);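 note: 0% = vehicle wells with enzyme and 100% = reference inhibitor wells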
assay.conditions: purified bovine MsrA, absorbance read-out; at 15.5 µM; hits give high values
Screen size: about 360,000 compounds; about 2,700 (0.75%) were called active. For the sample, actives were picked, then their nearest neighbours and some compounds at random.
Recorded inhibition values for a group of molecules are listed next.

- molecule: "Cc1cccc(CN2CCN(C3CN(Cc4cn(Cc5cc(C)cc(C)c5)nn4)S(=O)(=O)C3)CC2)c1 (stereo not given)"
  experimental.target: "Methionine sulfoxide reductase A (Bos taurus)"
  inhibition, %: -0.09
- molecule: "COc1ccc(-c2ccc(OC(=O)NC3CCS(=O)(=O)C3)cc2)cc1 (stereo not given)"
  experimental.target: "Methionine sulfoxide reductase A (Bos taurus)"
  inhibition, %: -0.4
- molecule: "O=C(N/N=C/c1ccc(O)c(O)c1)C1c2ccccc2Oc2ccccc21"
  experimental.target: "Methionine sulfoxide reductase A (Bos taurus)"
  inhibition, %: 0.85
- molecule: "C[C@@H]1CN([C@H](C)CO)C(=O)CCCn2cc(nn2)CO[C@H]1CN(C)C(=O)Nc1ccc(N2CCCCC2)cc1"
  experimental.target: "Methionine sulfoxide reductase A (Bos taurus)"
  inhibition, %: 0.88
- molecule: "COc1ccc(C)cc1NC(=O)CNCc1cccs1"
  experimental.target: "Methionine sulfoxide reductase A (Bos taurus)"
  inhibition, %: 1.1
- molecule: "CC(C)CC(CCc1ccccc1)OS(N)(=O)=O (stereo not given)"
  experimental.target: "Methionine sulfoxide reductase A (Bos taurus)"
  inhibition, %: 0.27
- molecule: "CCOc1ccc(/C=C(/C#N)c2nnc(N3CCOCC3)n2-c2ccccc2)cc1OC"
  experimental.target: "Methionine sulfoxide reductase A (Bos taurus)"
  inhibition, %: 6.28
- molecule: "Oc1ccc(/C=N/Nc2ccc(C(F)(F)F)cn2)cc1O"
  experimental.target: "Methionine sulfoxide reductase A (Bos taurus)"
  inhibition, %: 7.63
- molecule: "COc1ccc(/C=N/Nc2ncnc3sc4c(c23)CCCC4)cc1O"
  experimental.target: "Methionine sulfoxide reductase A (Bos taurus)"
  inhibition, %: 4.5
- molecule: "N#Cc1ccc(OCCCN2CCC(C(O)(c3ccccc3)c3ccccc3)CC2)c(F)c1"
  experimental.target: "Methionine sulfoxide reductase A (Bos taurus)"
  inhibition, %: 2.13

----------
Test system: Methionine sulfoxide reductase A (Bos taurus)
measurement.notes: bovine MsrA enzyme inhibitors, primary screen, biochemical, absorbance, HTS (AID 651718);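 note: 0% = vehicle wells with enzyme and 100% = reference inhibitor wells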
assay.conditions: purified bovine MsrA, absorbance read-out; at 15.5 µM; hits give high values
The whole screen tested about 360,000 compounds, of which about 2,700 (0.75%) were called active. The entries come from a sample that favours actives as a whole.
Below is a list of entries, each paired with its recorded inhibition value.

- compound: "COc1ccc(C(=O)CSc2nc(C)cc(C)n2)cc1[N+](=O)[O-]"
  inhibition / %: 11.2
- compound: "CC(C)(C)c1ccc(S(=O)(=O)NCC2CCN(C(=O)C(=O)c3cc4ccccc4o3)CC2)cc1"
  inhibition / %: 1.27
- compound: "O=c1[nH][nH]c2c1[C@H](c1ccc(Cl)cc1)O[C@H](CCc1ccccc1)C2"
  inhibition / %: -0.84
- compound: "COc1ccc(-n2nnnc2SCC(=O)c2ccc(OC)c(OC)c2)cc1"
  inhibition / %: 1.76
- compound: "COc1ccc(C(=O)NNC(=O)c2cnccn2)cc1[N+](=O)[O-]"
  inhibition / %: 3.54
- compound: "COCC1CCN(C(=O)C2CCC(=O)N(CC3CCCCC3)C2)CC1 (stereo not given)"
  inhibition / %: -0.21
- compound: "O=C(Cn1nnc(-c2ccccc2)n1)N/N=C/c1ccc(-c2ccc(Cl)cc2)o1"
  inhibition / %: 1.47
- compound: "COCCN(CCOC)S(=O)(=O)NC[C@H]1O[C@@H](n2cnc3c(N)ncnc32)[C@H](O)[C@@H]1O"
  inhibition / %: -0.9
- compound: "O=C(N/N=C\\c1ccc(-c2ccc(Cl)c(Cl)c2)o1)C(=O)N1CCCC1"
  inhibition / %: -0.58
- compound: "Cc1cc(=O)oc2c3c(cc(OCC(=O)NCc4ccccn4)c12)OC(C)(C)CC3"
  inhibition / %: 2.4

----------
System: Methionine sulfoxide reductase A (Bos taurus)
measurement.notes: bovine MsrA enzyme inhibitors, primary screen, biochemical, absorbance, HTS (AID 651718);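 note: 0% = vehicle wells with enzyme and 100% = reference inhibitor wells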
assay.conditions: purified bovine MsrA, absorbance read-out; at 15.5 µM; hits give high values
The whole screen tested about 360,000 compounds, of which about 2,700 (0.75%) were called active. Shown is part of a subset that was picked to be rich in actives.
readout.kind: inhibition (%)

- compound: "CC1(C(=O)NCc2ccccc2)CN(S(C)(=O)=O)CC(=O)N1CC(F)(F)F (stereo unspecified)"
  readout.kind: "inhibition"
  reading: -0.74
- compound: "Cc1ccc(NC(=O)/C(=C\\c2ccccc2)NC(=O)c2ccco2)cc1"
  readout.kind: "inhibition"
  reading: 1.7
- compound: "COc1ccc(/C=N/n2nnnc2N)cc1OC"
  readout.kind: "inhibition"
  reading: 4.82
- compound: "Nc1nnnn1/N=C/c1cccs1"
  readout.kind: "inhibition"
  reading: 0.3
- compound: "CSc1nc(N(C)NC(=O)c2cccc(C)c2)c2ccccc2n1"
  readout.kind: "inhibition"
  reading: 0.74
- compound: "Nc1nnnn1/N=C/c1cccc(Br)c1"
  readout.kind: "inhibition"
  reading: 0.5
- compound: "COc1ccc(/C=C(/NC(=O)c2ccco2)C(=O)Nc2ccc(C(C)=O)cc2)cc1"
  readout.kind: "inhibition"
  reading: 6.24
- compound: "Cc1nc2ccccc2n1C(=O)N1CCOCC1"
  readout.kind: "inhibition"
  reading: -0.3
- compound: "C=CC1=CCN(S(=O)(=O)C(C)(C)C)[C@@H]1CCO"
  readout.kind: "inhibition"
  reading: -1.1
- compound: "CCCCCCCCN1C(=O)[C@@H](CC(=O)N2CCN(C(=O)OCC)CC2)C[C@@]2(C(=O)OC)C1=C[C@H](C1CCCC1)O[C@@H]2C"
  readout.kind: "inhibition"
  reading: 0.48
- compound: "O=C(NC(Cc1ccccc1)C(=O)O)/C(=C\\c1ccccc1)NC(=O)c1ccco1 (stereo unspecified)"
  readout.kind: "inhibition"
  reading: -0.85

----------
Some compounds, each annotated with its measured inhibition.
System: Methionine sulfoxide reductase A (Bos taurus)
measurement.notes: bovine MsrA enzyme inhibitors, primary screen, biochemical, absorbance, HTS (AID 651718);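 note: 0% = vehicle wells with enzyme and 100% = reference inhibitor wells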
assay.conditions: purified bovine MsrA, absorbance read-out; at 15.5 µM; hits give high values
The campaign covered roughly 360,000 compounds. About 2,700 (0.75%) were called active. The sample as a whole holds a higher share of actives than the screen did.

- compound: "CCOC(=O)c1c(C)[nH]c(C)c1C(=O)CSc1nc(N)cc(N)n1"
  experimental.target: "Methionine sulfoxide reductase A (Bos taurus)"
  units.of.measure: "%"
  inhibition: 0.97
- compound: "CCCN(CC(=O)Nc1ccccc1OC)C(=O)CCC(=O)c1ccc(F)cc1"
  experimental.target: "Methionine sulfoxide reductase A (Bos taurus)"
  units.of.measure: "%"
  inhibition: -0.69
- compound: "COc1ccc(C2=NS(=O)(=O)N(C)C(C(=O)NC(C)c3ccccc3)=C2)cc1 (stereo not given)"
  experimental.target: "Methionine sulfoxide reductase A (Bos taurus)"
  units.of.measure: "%"
  inhibition: 4.29
- compound: "COc1cc(/C=C/C(=O)OCC(=O)N2CCOCC2)ccc1OCC#N"
  experimental.target: "Methionine sulfoxide reductase A (Bos taurus)"
  units.of.measure: "%"
  inhibition: 2.74
- compound: "CC(C)CNc1cccc2c1S(=O)(=O)N[C@H](C)CO2"
  experimental.target: "Methionine sulfoxide reductase A (Bos taurus)"
  units.of.measure: "%"
  inhibition: 0.24
- compound: "Cc1cc(N2CCN(C(=O)OC(C)(C)C)C[C@H]2C)ccc1N1CCN(Cc2ccccc2)[C@H](C)C1"
  experimental.target: "Methionine sulfoxide reductase A (Bos taurus)"
  units.of.measure: "%"
  inhibition: -0.82
- compound: "COc1ccc(C2=NS(=O)(=O)N(C)C(C(=O)N3CCCCC3)=C2)cc1"
  experimental.target: "Methionine sulfoxide reductase A (Bos taurus)"
  units.of.measure: "%"
  inhibition: 5.54
- compound: "C[C@H]1[C@H](c2ccccc2)Oc2cc(Br)ccc2S(=O)(=O)N1Cc1cccc(F)c1"
  experimental.target: "Methionine sulfoxide reductase A (Bos taurus)"
  units.of.measure: "%"
  inhibition: -0.62
- compound: "COc1ccc(C2=NS(=O)(=O)N(C)C(C(=O)N(C)Cc3ccccc3)=C2)cc1"
  experimental.target: "Methionine sulfoxide reductase A (Bos taurus)"
  units.of.measure: "%"
  inhibition: 3.53
- compound: "COc1ccc(S(=O)(=O)N2CCOCC2)cc1NC(=O)CSc1nnc(NC2CC2)s1"
  experimental.target: "Methionine sulfoxide reductase A (Bos taurus)"
  units.of.measure: "%"
  inhibition: 1.12

Each recorded value in this set is attributed to PubChem BioAssay AID651718.
